Biological target: mTOR kinase (Homo sapiens, UniProt P42345)
Construct: FLAG; made in house
Sequence (P42345 1362-2549): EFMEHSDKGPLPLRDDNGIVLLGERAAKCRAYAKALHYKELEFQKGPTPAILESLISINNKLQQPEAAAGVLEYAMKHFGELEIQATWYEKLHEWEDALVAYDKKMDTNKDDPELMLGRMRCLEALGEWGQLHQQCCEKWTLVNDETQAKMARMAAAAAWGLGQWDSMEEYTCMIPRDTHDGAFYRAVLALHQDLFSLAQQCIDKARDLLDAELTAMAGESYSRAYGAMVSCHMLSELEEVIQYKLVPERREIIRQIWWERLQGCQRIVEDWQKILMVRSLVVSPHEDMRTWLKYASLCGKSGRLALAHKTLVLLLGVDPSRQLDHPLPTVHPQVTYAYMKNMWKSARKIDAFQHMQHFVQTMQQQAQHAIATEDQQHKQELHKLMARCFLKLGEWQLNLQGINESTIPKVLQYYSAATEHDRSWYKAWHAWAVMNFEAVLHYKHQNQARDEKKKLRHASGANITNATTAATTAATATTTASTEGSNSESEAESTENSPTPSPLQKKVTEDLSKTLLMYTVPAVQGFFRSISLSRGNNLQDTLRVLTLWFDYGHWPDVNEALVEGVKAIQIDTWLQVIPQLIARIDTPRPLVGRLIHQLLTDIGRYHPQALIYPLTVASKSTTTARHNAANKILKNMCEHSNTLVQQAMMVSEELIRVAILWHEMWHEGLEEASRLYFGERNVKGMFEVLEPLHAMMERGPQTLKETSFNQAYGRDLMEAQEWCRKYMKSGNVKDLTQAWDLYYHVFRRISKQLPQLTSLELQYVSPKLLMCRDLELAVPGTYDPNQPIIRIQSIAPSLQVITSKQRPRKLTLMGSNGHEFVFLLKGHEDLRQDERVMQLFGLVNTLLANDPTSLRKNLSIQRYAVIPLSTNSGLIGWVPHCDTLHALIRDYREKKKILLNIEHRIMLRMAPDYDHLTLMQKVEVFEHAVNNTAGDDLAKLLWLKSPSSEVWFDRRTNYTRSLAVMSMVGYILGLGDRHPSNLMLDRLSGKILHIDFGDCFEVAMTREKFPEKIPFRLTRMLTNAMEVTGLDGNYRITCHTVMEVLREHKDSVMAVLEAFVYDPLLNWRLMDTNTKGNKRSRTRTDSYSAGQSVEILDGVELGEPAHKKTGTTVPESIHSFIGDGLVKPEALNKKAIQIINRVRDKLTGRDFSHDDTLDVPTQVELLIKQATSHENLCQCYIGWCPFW
Experiment: In vitro mTOR kinase assay, Test (a)(i) (AlphaScreen)
Type: biochemical
Conditions: recombinant FLAG-tagged mTOR (1362-2549), ATP 20 μM; read-out: Test (a)(i) IC50
Source text: (a)(i) In Vitro mTOR Kinase Assay A C-terminal truncation of mTOR encompassing amino acid residues 1362 to 2549 of mTOR (EMBL Accession No. L34075) was stably expressed as a FLAG-tagged fusion in HEK293 cells as described by Vilella-Bach et al., Journal of Biochemistry, 1999, 274, 4266-4272. […]
ASSAY READOUT: IC50 (µM)

P: Cc1ccc(C(=O)Nc2ccc(-c3nc(CS(C)(=O)=O)cc(N4CCOCC4)n3)cc2)n1C
Q: CC(=O)NCCC(=O)Nc1ccc(-c2nc(CS(C)(=O)=O)cc(N3CCOCC3)n2)cc1
R: CS(=O)(=O)Cc1cc(N2CCOCC2)nc(-c2ccc(NC(=O)c3cncs3)cc2)n1
Please rank the 3 items above; order by IC50, the highest number leading. Answer with the labels in sequence, matching the requested order. P, Q, R
(P: 9.05 µM, Q: 3.99 µM, R: 0.552 µM)

These measurements were taken from patent US20100261723A1.
